test: in vivo; set-up: species or system CD-1 mice; conditions: CD-1, mouse, iv, 1 mg/kg
Non-standard residues stand in square brackets, D forms with d. Residues, ends and D or L forms follow the SMILES beside them. Dab = NCC[C@H](N)C(=O)O
Measurement Type: clearance (mL/min/kg)

# Compound, Result Number
records = [
    ("CC[C@H](C)[C@@H]1NC(=O)[C@H](Cc2c[nH]c3ccccc23)NC(=O)[C@H]([C@@H](C)O)NC(=O)[C@@H]2CCCN2C(=O)[C@H]2CCCN2C(=O)[C@H](CCN)NC(=O)[C@H](C)NC(=O)[C@H](CCN)NC(=O)[C@H](CCN)NC(=O)[C@H](Cc2c[nH]c3ccccc23)NC(=O)[C@H](CCN)NC(=O)[C@H](CCN)NC(=O)[C@H](CCCCN)NC(=O)[C@H](CCN)NC1=O [Example 1] (cyclo(TWI[Dab]K[Dab][Dab]W[Dab][Dab]A[Dab][dP]P))", 25.7),
]

====

test: in vivo; design: species or system CD-1 mice; conditions: mouse, sc, 5 mg/kg, Cmax
Non-standard residues stand in square brackets, D forms with d. Residues, ends and D or L forms follow the SMILES beside them. Dab = NCC[C@H](N)C(=O)O

# Molecule, Cmax (ng/mL)
rows = [
    ("CC[C@H](C)[C@@H]1NC(=O)[C@H](Cc2c[nH]c3ccccc23)NC(=O)[C@H]([C@@H](C)O)NC(=O)[C@@H]2CCCN2C(=O)[C@H]2CCCN2C(=O)[C@H](CCN)NC(=O)[C@H](C)NC(=O)[C@H](CCN)NC(=O)[C@H](CCN)NC(=O)[C@H](Cc2c[nH]c3ccccc23)NC(=O)[C@H](CCN)NC(=O)[C@H](CCN)NC(=O)[C@H](CCCCN)NC(=O)[C@H](CCN)NC1=O [Example 1] (cyclo(TWI[Dab]K[Dab][Dab]W[Dab][Dab]A[Dab][dP]P))", 2330),
]

====

system: Pseudomonas aeruginosa IMP 1 Livermore 3140; assay type: cell-based; details: IMP 1 Livermore 3140
Non-standard residues stand in square brackets, D forms with d. Residues, ends and D or L forms follow the SMILES beside them. Chg = N[C@H](C(=O)O)C1CCCCC1; Nle = CCCC[C@H](N)C(=O)O; Dab = NCC[C@H](N)C(=O)O; Nva = CCC[C@H](N)C(=O)O; Abu = CC[C@H](N)C(=O)O

# Compound, Censoring Sign, MIC P. aeruginosa IMP1 Livermore 3140 (mg/L)
rows = [
    ("CC[C@H](C)[C@@H]1NC(=O)[C@H](Cc2c[nH]c3ccccc23)NC(=O)[C@H]([C@@H](C)O)NC(=O)[C@@H]2CCCN2C(=O)[C@H]2CCCN2C(=O)[C@H](CCN)NC(=O)[C@H](CCC(=O)O)NC(=O)[C@H](CCN)NC(=O)[C@H](CCN)NC(=O)[C@H](Cc2c[nH]c3ccccc23)NC(=O)[C@H](CCN)NC(=O)[C@H](CCN)NC(=O)[C@H](CCCCN)NC(=O)[C@H](CCN)NC1=O [Example 15] (cyclo(TWI[Dab]K[Dab][Dab]W[Dab][Dab]E[Dab][dP]P))", ">", 2),
    ("CCC[C@@H]1NC(=O)[C@H](CCN)NC(=O)[C@H](CCN)NC(=O)[C@H](Cc2c[nH]c3ccccc23)NC(=O)[C@H](CCN)NC(=O)[C@H](CCN)NC(=O)[C@H](CCCCN)NC(=O)[C@H](CCN)NC(=O)[C@H]([C@@H](C)CC)NC(=O)[C@H](Cc2c[nH]c3ccccc23)NC(=O)[C@H]([C@@H](C)O)NC(=O)[C@@H]2CCCN2C(=O)[C@H]2CCCN2C(=O)[C@H](CCN)NC1=O [Example 10] (cyclo(TWI[Dab]K[Dab][Dab]W[Dab][Dab][Nva][Dab][dP]P))", "=", 0.43),
    ("CC[C@@H]1NC(=O)[C@H](CCN)NC(=O)[C@H](CCN)NC(=O)[C@H](Cc2c[nH]c3ccccc23)NC(=O)[C@H](CCN)NC(=O)[C@H](CCN)NC(=O)[C@H](CCCCN)NC(=O)[C@H](CCN)NC(=O)[C@H]([C@@H](C)CC)NC(=O)[C@H](Cc2c[nH]c3ccccc23)NC(=O)[C@H]([C@@H](C)O)NC(=O)[C@@H]2CCCN2C(=O)[C@H]2CCCN2C(=O)[C@H](CCN)NC1=O [Example 6] (cyclo(TWI[Dab]K[Dab][Dab]W[Dab][Dab][Abu][Dab][dP]P))", "=", 0.24),
    ("CC[C@H](C)[C@@H]1NC(=O)[C@H](Cc2c[nH]c3ccccc23)NC(=O)[C@H]([C@@H](C)O)NC(=O)[C@@H]2CCCN2C(=O)[C@H]2CCCN2C(=O)[C@H](CCN)NC(=O)[C@H](C2CCCCC2)NC(=O)[C@H](CCN)NC(=O)[C@H](CCN)NC(=O)[C@H](Cc2c[nH]c3ccccc23)NC(=O)[C@H](CCN)NC(=O)[C@H](CCN)NC(=O)[C@H](CCCCN)NC(=O)[C@H](CCN)NC1=O [Example 11] (cyclo(TWI[Dab]K[Dab][Dab]W[Dab][Dab][Chg][Dab][dP]P))", ">", 2),
    ("CCCC[C@@H]1NC(=O)[C@H](CCN)NC(=O)[C@H](CCN)NC(=O)[C@H](Cc2c[nH]c3ccccc23)NC(=O)[C@H](CCN)NC(=O)[C@H](CCN)NC(=O)[C@H](CCCCN)NC(=O)[C@H](CCN)NC(=O)[C@H]([C@@H](C)CC)NC(=O)[C@H](Cc2c[nH]c3ccccc23)NC(=O)[C@H]([C@@H](C)O)NC(=O)[C@@H]2CCCN2C(=O)[C@H]2CCCN2C(=O)[C@H](CCN)NC1=O [Example 9] (cyclo(TWI[Dab]K[Dab][Dab]W[Dab][Dab][Nle][Dab][dP]P))", ">", 2),
]

====

system: Pseudomonas aeruginosa IMP 1 Livermore 3140; assay type: cell-based; conditions: IMP 1 Livermore 3140
Non-standard residues stand in square brackets, D forms with d. Residues, ends and D or L forms follow the SMILES beside them. Dab = NCC[C@H](N)C(=O)O

# Compound, MIC P. aeruginosa IMP1 Livermore 3140
rows = [
    ("CC[C@H](C)[C@@H]1NC(=O)[C@H](Cc2c[nH]c3ccccc23)NC(=O)[C@H](C)NC(=O)[C@@H]2CCCN2C(=O)[C@H]2CCCN2C(=O)[C@H](CCN)NC(=O)[C@H](C(C)C)NC(=O)[C@H](CCN)NC(=O)[C@H](CCN)NC(=O)[C@H](Cc2c[nH]c3ccccc23)NC(=O)[C@H](CCN)NC(=O)[C@H](CCN)NC(=O)[C@H](CCN)NC(=O)[C@H](CCN)NC1=O [Example 23] (cyclo(AWI[Dab][Dab][Dab][Dab]W[Dab][Dab]V[Dab][dP]P))", ">2 µg/mL"),
]

====

Property: MIC P. aeruginosa P1021903; scope: individual molecules
system: Pseudomonas aeruginosa P1021903; assay type: cell-based; conditions: P1021903
Non-standard residues stand in square brackets, D forms with d. Residues, ends and D or L forms follow the SMILES beside them. Nle = CCCC[C@H](N)C(=O)O; Dab = NCC[C@H](N)C(=O)O
Measurement Type: MIC P. aeruginosa P1021903 (µg/mL)

# Molecule, Result Number
data = [
    ("CC[C@H](C)[C@@H]1NC(=O)[C@H](Cc2c[nH]c3ccccc23)NC(=O)[C@H]([C@@H](C)O)NC(=O)[C@@H]2CCCN2C(=O)[C@H]2CCCN2C(=O)[C@H](CCN)NC(=O)[C@H](CC(=O)O)NC(=O)[C@H](CCN)NC(=O)[C@H](CCN)NC(=O)[C@H](Cc2c[nH]c3ccccc23)NC(=O)[C@H](CCN)NC(=O)[C@H](CCN)NC(=O)[C@H](CCCCN)NC(=O)[C@H](CCN)NC1=O [Example 14] (cyclo(TWI[Dab]K[Dab][Dab]W[Dab][Dab]D[Dab][dP]P))", 0.31),
    ("CCCC[C@@H]1NC(=O)[C@H](CCN)NC(=O)[C@H](CCN)NC(=O)[C@H](Cc2c[nH]c3ccccc23)NC(=O)[C@H](CCN)NC(=O)[C@H](CCN)NC(=O)[C@H](CCCCN)NC(=O)[C@H](CCN)NC(=O)[C@H]([C@@H](C)CC)NC(=O)[C@H](Cc2c[nH]c3ccccc23)NC(=O)[C@H]([C@@H](C)O)NC(=O)[C@@H]2CCCN2C(=O)[C@H]2CCCN2C(=O)[C@H](CCN)NC1=O [Example 9] (cyclo(TWI[Dab]K[Dab][Dab]W[Dab][Dab][Nle][Dab][dP]P))", 1.50),
]
